- experimental-system: T1, Human BCMA (human, UniProt Q02223 1-54, limits assumed)
- T1 construct: also called huBCMA; B-cell maturation antigen
- T1 sequence (looked up): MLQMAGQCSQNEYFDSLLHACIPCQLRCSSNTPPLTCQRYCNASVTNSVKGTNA
- method-description: SPR, IgG immobilised, human BCMA analyte
- Procedure: All experiments were performed on a Bio-Rad Proteon XPR36 surface Plasmon resonance biosensor (Bio-Rad, Hercules, Calif.). […] The analysis temperature for the immobilization was 25° C. and the running buffer was HBS-T+(10 mM HEPES, 150 mM NaCl, 0.05% Tween-20, pH 7.4). […] The analysis temperature for the BCMA binding analysis was 37° C. or 25° C. in a running buffer of HBS-T+, supplemented with 1 mg/mL BSA. […] Immediately after the 50 nM BCMA injection, dissociation was monitored for 2 hours. […]
metric: pKd
Convention used: pKd is expressed as -log10 of the molar concentration.

Examples from the recorded data:
binder | pKd
C01_Rd4_6nM_C24 (antibody, V domains shown, IgG) VH: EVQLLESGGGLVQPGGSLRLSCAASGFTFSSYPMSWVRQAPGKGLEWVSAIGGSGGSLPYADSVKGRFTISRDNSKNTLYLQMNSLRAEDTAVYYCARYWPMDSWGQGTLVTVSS VL: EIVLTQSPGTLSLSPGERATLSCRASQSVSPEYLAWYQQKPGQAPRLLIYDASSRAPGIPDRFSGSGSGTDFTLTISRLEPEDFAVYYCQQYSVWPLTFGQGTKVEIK | 9.33
C01_Rd4_6nM_C20 (antibody, V domains shown, IgG) VH: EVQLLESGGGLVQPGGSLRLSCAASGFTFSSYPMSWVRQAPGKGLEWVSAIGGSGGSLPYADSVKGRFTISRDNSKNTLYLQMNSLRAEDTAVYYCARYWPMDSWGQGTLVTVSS VL: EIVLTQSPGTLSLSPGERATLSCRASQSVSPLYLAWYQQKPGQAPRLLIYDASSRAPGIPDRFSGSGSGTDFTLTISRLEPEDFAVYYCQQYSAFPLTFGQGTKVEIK | 9.34

Alright, here's another binder for you.
Sample A02_Rd4_6nM_C16 (antibody, V domains shown, IgG; also called P5AC16) VH: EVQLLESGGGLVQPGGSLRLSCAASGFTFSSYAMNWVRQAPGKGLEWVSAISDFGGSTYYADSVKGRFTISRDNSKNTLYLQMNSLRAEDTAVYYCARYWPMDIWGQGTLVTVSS VL: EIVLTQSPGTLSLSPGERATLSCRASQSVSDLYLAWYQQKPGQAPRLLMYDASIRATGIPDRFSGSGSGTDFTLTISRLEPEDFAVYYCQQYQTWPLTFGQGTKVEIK — what was its pKd? 10.05
